Task for the reader: assign each of the following sequences its reported Percentage of donors demonstrating TNF-α responses, DR7.
tested on: CD4 T cells co-cultured with autologous DCs from PBMCs; type: cell-based, human; details: DR7 donors N=4; positive = Stimulation Index ≥1.5-fold above baseline; ICCS, 5 µg/mL peptide
The reply should be a number in %, with the unit left off.

The value of Percentage of donors demonstrating TNF-α responses, DR7 recorded for DKHIEKYLKRIQNSLSTEWS [ICS9] when tested on CD4 T cells co-cultured with autologous DCs from PBMCs reads 50

The value of Percentage of donors demonstrating TNF-α responses, DR7 recorded for DQHIEQYLKKIQNSISTEWS [ICS3] when tested on CD4 T cells co-cultured with autologous DCs from PBMCs reads 50

The value of Percentage of donors demonstrating TNF-α responses, DR7 recorded for DQHIEQYLKTIQNSLSTEWS [ICS4] when tested on CD4 T cells co-cultured with autologous DCs from PBMCs reads 0

The value of Percentage of donors demonstrating TNF-α responses, DR7 recorded for DQHIEKYLKTIKNSLSTEWS [ICS10] when tested on CD4 T cells co-cultured with autologous DCs from PBMCs reads 25

The value of Percentage of donors demonstrating TNF-α responses, DR7 recorded for IKKYLKKIKNSISTEWSPCS [ICS6] when tested on CD4 T cells co-cultured with autologous DCs from PBMCs reads 25
